# testSystem: human CD3 (human, UniProt P07766 23-207; P04234 22-171; P09693 23-182)
# Sequence (P07766 23-207, chain 1 of 3): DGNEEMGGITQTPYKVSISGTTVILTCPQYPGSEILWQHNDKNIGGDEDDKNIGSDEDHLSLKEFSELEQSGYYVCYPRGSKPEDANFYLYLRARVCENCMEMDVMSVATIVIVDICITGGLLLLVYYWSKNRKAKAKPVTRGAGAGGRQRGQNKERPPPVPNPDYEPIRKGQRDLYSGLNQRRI
# Sequence (P04234 22-171, chain 2 of 3): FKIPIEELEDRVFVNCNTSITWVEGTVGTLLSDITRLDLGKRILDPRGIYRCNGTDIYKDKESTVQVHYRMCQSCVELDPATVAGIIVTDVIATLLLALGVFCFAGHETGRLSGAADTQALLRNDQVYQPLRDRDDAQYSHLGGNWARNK
# Sequence (P09693 23-182, chain 3 of 3): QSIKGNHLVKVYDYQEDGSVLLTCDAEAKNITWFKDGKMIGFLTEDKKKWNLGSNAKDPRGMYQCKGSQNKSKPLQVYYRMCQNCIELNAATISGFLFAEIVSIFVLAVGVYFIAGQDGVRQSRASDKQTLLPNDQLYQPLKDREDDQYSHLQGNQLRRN
# experimentalDetails: cell-based or functional assay
parameter: CD8 EC50 (nM); CD69/CD25 on human T cells, plate-coated antibody
Number in nM, nothing else.

Before answering, review these 5 worked examples.
INSERT INTO measurements (binder, recordednumber) VALUES
  ('mAb 116 (antibody, V domains shown) VH: EVQLVESGGGLVKTGGSLRLSCVASGFSFKKAWMNWVRQAPGKGLEWVGRIKRNSDGGTTDYAAPVKGRFTLSRDDSKNTLYLQMNSLKTEDTAVYYCTTLDSSSWYVGYYYMDVWGKGTTVTVSS VL: DIQMTQSPFSVSASVGDRVTITCRASQDINNWLAWYQQKPGKAPKILIYTASSLQSGVPSRFSGSGSGTDFTLTISSLQPEDFATYYCQQAHSLPITFGQGTRLEIK', 7.01),
  ('mAb 111 (antibody, V domains shown) VH: EVQLVESGGVLVKTGGSLRLSCVASGFSFKKAWMNWVRQAPGKGLEWVGRIKRNSDGGAADYAAPVKDRFTLSRDDSKNTLYLQMNSLKTEDTAVYYCTTLDSSSWYVGYYYMDVWGKGTTVTVSS VL: DIHMTQSPSSVSASLGDRVTFTCRASQNINNWLAWYQQKPGKAPKLLIYTASSLQSGVPSRFSGSGSGTDFTLTISSLQPDDFATYYCQQAHSLPITFGQGTRLGIK', 9.42),
  ('mAb 115 (antibody, V domains shown) VH: EVQLVESGGGLVKTGGSHRLSCVASGFSFKKAWMNWVRQAPGKGLEWVGRIKRNSDGGTTDYAAPVKGRFILSRDDSKNTLYLQMNSLKTEDTAVYYCTTLDSSSWYVGYYYMDVWGKGTTVTVSS VL: DIQMTQSPSSVSASVGDRVTITCRASQDINNWLAWYQQKPGKAPKILIYTASNLQSGVPSRFSGSGSGTDFTLTISSLQPEDFATYFCQQAHGLPITFGQGTRLEIK', 7.16),
  ('mAb 132 (antibody, V domains shown) VH: DVQLVESGGGTVKTGGSLRLSCVASGFSFKKAWMNWVRQAPGKGLEWVGRIKKNSDGGTADYAAPVKGRFTISRDDSKKTLYLQMNSLQTEDTAVYYCTTLDSSSWYVGYYYMDVWGKGTTVTVSS VL: DIQMTQSPSSVSASVGDRVIITCRASQDINNWLAWYQQKPGIAPKLLIYTASSLQSGVPSRFSGSGSVSDFTLTIGSLQPEDFATYYCQQAHSLPITFGQGTRLEIK', 6.34),
  ('mAb 161 (antibody, V domains shown) VH: EVQLVESGGGLVQPGRSLRLSCAASGITFADYTMHWVRQAPGKGLEWVSGISWNSGSIDYADSVKGRFTISRDNAKKTLYLQMNRLRAEDTALYYCAKDSSGYGHYYFYYLDVWGKGTTVTVSS VL: EIVMTQSPATLSVSPGERATLSCRASQSVSNNLAWYQQKPGQAPRLLIYSTSTRATGIPARFSGSRSGTEFTLTISSLQSEDSAVYYCQQYNNWPHFGQGTRLEIK', 7.89);

Given the entry mAb 157 (antibody, V domains shown) VH: EVQLVESGGGLVKTGGSLRLSCVASGFSFKKAWMNWVRQAPGKGLEWVGRIKRTADGGATDYAAPVKGRFTLSRDDSKNTLYLQMNSLKTEDTAVYYCTTLDSSSWYVGYYYMDVWGKGTTVTVSS VL: DIHMTQAPSSVSASVGDRVTFTCRASQDINNWLAWYQQKPGKAPKLLIYTASSLQSGVPSRFSGSGSGTDFTLTISSLQPEDFATYYCQQAHSLPITFGQGTRLGIK , report its measured CD8 EC50 (nM); CD69/CD25 on human T cells, plate-coated antibody.
6.57

Can you check mAb 50 (antibody, V domains shown) VH: QAQLVQSGSELKKPGASVKVSCKASGYTFTRHAMNWVRQAPGQGLEWMGWINTNTGNPTYAQGFTGRFVFSLDTSVTTAYLQISSLKAEDTAVYYCAREGDYDFWSGFFNFDYWGQGTLVTVSS VL: DIQMTQSPSSLSASVGDRVTITCRASQGIRNDLGWFQQKPGKAPTRLIYAASSLQSGVPSRFSGSGSGAEFTLTISSLQPEDFATYYCLQHNSYPRTFGQGTKVEIK next?
24.5

Same lookup for mAb 163 (antibody, V domains shown) VH: EVQLVESGGGLVKTGGSLRLSCVASGFSFKKAWMNWVRQVPGKGLEWVGRIKRNTDGGTADYAAPVKGRFTLSRDDSKKTLFLQMNSLKTEDTAVYYCTTLDSSSYYVGYYYMDVWGKGTTVTVSS VL: DIQMTQSPSSVSASVGDRVIITCRASQDINNWLAWYQQKPGKAPKLLIYTASSLQSGVPSRFSGSGSGTDFTLTIGSLQPEDFATYYCQQAHSLPITFGQGTRLEIK , please.
6.99

Now consider mAb 49 (antibody, V domains shown) VH: EVQLVESGGGLVPPGGSLRLSCVASGFTLRSYTMNWVRQAPGQGLEWISYISSTSRTIYYSDSVKGRFTISRDNAKNSLYLQVNSLRDEDTALYYCAREDYYDSSGFDCWGQGTLVTVSS VL: AIRMTQSPSSFSASTGDRVTITCRASQGIFNYLAWYQQKPGKAPKLLIYSTSTLQSGVPSRFSGSGSGTDFTLTIRGLQSEDLATYYCQQYYSFPRTFGQGTKVDIK and answer again.
6.65

Similarly, mAb 79 (antibody, V domains shown) VH: QVQLVQSGAEVKKPGASVKVSCKASGYIVTGYYMHWVRQAPGHGLEWMGWINPNSGGTNFAQNFQGRVTMTRDTSISTFYMDLNRLTSDDTAVYYCARGGAPVSYWFFDLWGRGTLVTVSS VL: DIQMTQSPSSLSASVGDRVTITCRASQNINSYLNWYHQKPGKAPKVLIYNTSTLKSGVPSRFSGSGSGTYFTLTISSLQPEDFATFYCQQSHSTPFTFGPGTKVDIK ?
11
